# Experimental system: T1, human GPC3 on cells (human, UniProt P51654 25-554)
# T1 construct: whole, on cells; over-expressed on CHOK1 cells or endogenous on HEPG2, Hep3B and Huh-7 hepatocellular carcinoma cells; the cell line is named under assay; also called GPC3-CHOK1 cells; human GPC3 over-expressed CHOK1 cells
# Experiment summary: FACS, GPC3-CHOK1 cells
# Method: To evaluate the antigen binding property, the humanized antibodies were analyzed for their binding to human GPC3 over-expressed CHOK1 cells and Huh-7 cells by FACS. Briefly, GPC3-CHOK1 cells and Huh-7 cells were firstly incubated with Fc blocking reagent at 4° C. for 15 mins. Cells were washed by FACS buffer and divided to each well with 4-fold serially diluted humanized antibodies starting at 10 μg/mL at 4° C. for 60 mins. Cells were washed by FACS buffer and fixed with 2% PFA at RT for 15 mins. […]
Measured quantity: EC50 (µg/mL)
State the answer as a number, implicitly in µg/mL.

Hu 52H5D3B8-11 (antibody, V domains shown, humanized 52H5D3B8; also called 52H5D3B8 VH5 + VL0) VH: EVQLVQSGAEVKKPGASVKVSCKASGYTFTDYEMHWVRQAPGQGLEWIGAIHPGSGGTAYNQKFKGKATLTADKSISTAYMELSRLRSDDTAVYYCTRFYSYAYWGQGTLVTVSS VL: DVVMTQTPLSLSVTPGQPASISCRSSQSLVHSNGNTYLQWYLQKPGQSPQLLIYKVSNRFSGVPDRFSGSGSGTDFTLKISRVEAEDVGVYYCSQSIHVPYTFGGGTKVEIK: 0.04

GET /values?readout=EC50&item= Hu 52H5D3B8-10 (antibody, V domains shown, humanized 52H5D3B8; also called 52H5D3B8 VH4 + VL1) VH: EVQLVQSGAEVKKPGASVKVSCKASGYTFTDYEMHWVRQAPGQGLEWIGAIHPGSGGTAYNQKFKGRVTLTADKSISTAYMELSRLRSDDTAVYYCTRFYSYAYWGQGTLVTVSS VL: DVVMTQTPLSLSVTPGQPASISCRSSQSLVHSNGNTYLQWYLQKPGQSPQLLIYKVSNRFSGVPDRFSGSGSGTDFTLKISRVEAEDVGVYFCSQSIHVPYTFGGGTKVEIK
0.0389

// query EC50 value for entry Hu 52H5D3B8-12 (antibody, V domains shown, humanized 52H5D3B8; also called 52H5D3B8 VH5 + VL1) VH: EVQLVQSGAEVKKPGASVKVSCKASGYTFTDYEMHWVRQAPGQGLEWIGAIHPGSGGTAYNQKFKGKATLTADKSISTAYMELSRLRSDDTAVYYCTRFYSYAYWGQGTLVTVSS VL: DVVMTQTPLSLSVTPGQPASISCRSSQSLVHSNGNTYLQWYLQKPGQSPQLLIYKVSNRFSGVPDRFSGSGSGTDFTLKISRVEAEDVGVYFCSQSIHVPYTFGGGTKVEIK
0.0384

Query: EC50; subject: 52H5D3B8 chimeric mAb (antibody, V domains shown, also called 52H5D3B8-VH+VL; chimeric 52H5D3B8 mAb) VH: QVQLQQSGAELVRPGASVKLSCKALGYTFTDYEMHWVKQTPVHGLEWIGAIHPGSGGTAYNQKFKGKATLTADKFSSTGYMELSSLTSEDSAVYYCTRFYSYAYWGQGTLVTVSA VL: DVVMTQTPLSLPVSLGDQASISCRSSQSLVHSNGNTYLQWYLQKPGQSPKLLIYKVSNRFSGVPDRFSGSGSGTDFILKISRVEAEDLGVYFCSQSIHVPYTFGGGTKLEIK
0.0479
